targetOrTestSystem: hCA IX (Homo sapiens)
Construct: made in house
measurementProtocol: stopped-flow CO2 hydrase assay, hCA IX inhibition
Format: biochemical
details: 6 h incubation of enzyme and inhibitor; mean from 3 different assays, errors 5-10%; read-out: KI (nM) CA IX
quantityName: Ki (nM)
Numbers only, in nM.

# count of solved cases: 5
# molecule, Ki / nM
data = [
    ("O=C(Nc1ccc(Br)cc1)C1=Cc2ccccc2OS1(=O)=O [Compound 39]", 34300),
    ("O=C(Nc1cccc(Br)c1)C1=Cc2ccccc2OS1(=O)=O [Compound 40]", 40800),
    ("CC1=CS(=O)(=O)Oc2cc(OCc3cccc(F)c3)ccc21 [Compound 20]", 33.2),
    ("COc1ccc2c(c1)OS(=O)(=O)c1ccccc1-2 [Compound 25]", 1290),
    ("COc1ccc(NC(=O)C2=Cc3ccccc3OS2(=O)=O)cc1 [Compound 41]", 8230),
]

Batch lookup, Ki per entry.
1. O=S1(=O)Oc2cc(OCc3cccc(F)c3)ccc2-c2ccccc21 [Compound 29]
2. O=S1(=O)C=Cc2ccc(OCc3cccc(F)c3)cc2O1 [Compound 15]
3. CC1=CS(=O)(=O)Oc2cc(OCc3ccc([N+](=O)[O-])cc3)ccc21 [Compound 21]

## Output
1. 615
2. 28.4
3. 89.7

Batch lookup, Ki per entry.
1. CCOC(=O)C1=Cc2ccccc2OS1(=O)=O [Compound 34]
2. O=S1(=O)C=Cc2ccc(OCc3ccccc3)cc2O1 [Compound 13]

## Output
[1630, 55.6]

* * *

targetOrTestSystem: hCA XII (Homo sapiens)
Construct: made in house
measurementProtocol: biochemical
quantityName: Ki (nM)
Answers are plain numbers, in nM.

# compound, Ki [nM]
records = [
    ("COc1ccc(NC(=O)C2=Cc3ccc(OC)cc3OS2(=O)=O)cc1 [Compound 46]", 6550),
    ("COc1cccc(NC(=O)C2=Cc3ccc(OC)cc3OS2(=O)=O)c1 [Compound 47]", 2470),
    ("O=C(O)C1=Cc2ccccc2OS1(=O)=O [Compound 36]", 564),
    ("COc1ccc2c(c1)OS(=O)(=O)C(C(=O)Nc1ccc(Br)cc1)=C2 [Compound 44]", 42500),
    ("COc1ccc2c(c1)OS(=O)(=O)C(C(=O)O)=C2 [Compound 37]", 408),
]

Batch lookup, Ki per entry.
1. COc1cccc(NC(=O)C2=Cc3ccccc3OS2(=O)=O)c1 [Compound 42]
2. O=C(Nc1ccccc1)C1=Cc2ccccc2OS1(=O)=O [Compound 38]
3. CCOC(=O)C1=Cc2ccc(OC)cc2OS1(=O)=O [Compound 35]
4. COc1ccc2c(c1)OS(=O)(=O)C(C(=O)Nc1cccc(Br)c1)=C2 [Compound 45]

## Output
1. 3380
2. 2300
3. 1530
4. 76500

* * *

targetOrTestSystem: hCA IX (Homo sapiens, UniProt Q16790)
Construct: made in house
measurementProtocol: stopped-flow CO2 hydrase assay, hCA IX inhibition
Type: biochemical
details: 6 h incubation of enzyme and inhibitor; mean from 3 different assays, errors 5-10%; read-out: KI (nM) CA IX
Rule: measured Ki below 80 nM gets 1; anything equal to or greater than 80 nM gets 0.

Below are worked cases with known answers.
# smilesInput, classLabel
records = [
    ("COc1ccc2c(c1)OS(=O)(=O)C=C2", 1),
    ("COc1cccc(NC(=O)C2=Cc3ccc(OC)cc3OS2(=O)=O)c1", 0),
    ("O=[N+]([O-])c1cccc(COc2ccc3c(c2)OS(=O)(=O)C=C3)c1", 1),
    ("COc1ccc(NC(=O)C2=Cc3ccc(OC)cc3OS2(=O)=O)cc1", 0),
    ("O=C(O)C1=Cc2ccccc2OS1(=O)=O", 0),
    ("CC1=CS(=O)(=O)Oc2cc(OCc3ccc(F)cc3)ccc21", 1),
    ("COc1ccc2c(c1)OS(=O)(=O)C(C(=O)Nc1ccccc1)=C2", 0),
    ("O=C(Nc1ccccc1)C1=Cc2ccccc2OS1(=O)=O", 0),
]

Could you now look at the following molecule, please?
## Input Dear reviewer, please state whether "CC1=CS(=O)(=O)Oc2cc(OCc3cccc([N+](=O)[O-])c3)ccc21" has Ki strictly beneath 80 nM.
## Output 1

* * *

targetOrTestSystem: hCA I (Homo sapiens)
Construct: made in house
Sequence (P00915 whole entry): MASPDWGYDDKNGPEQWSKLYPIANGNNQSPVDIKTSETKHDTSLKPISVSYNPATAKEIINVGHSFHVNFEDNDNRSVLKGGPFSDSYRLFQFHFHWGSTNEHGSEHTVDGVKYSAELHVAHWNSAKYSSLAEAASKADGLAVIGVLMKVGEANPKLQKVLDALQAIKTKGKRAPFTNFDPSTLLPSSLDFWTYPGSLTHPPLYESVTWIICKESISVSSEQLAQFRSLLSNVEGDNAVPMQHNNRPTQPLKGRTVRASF
measurementProtocol: stopped-flow CO2 hydrase assay, hCA I inhibition
Type: biochemical
details: 6 h incubation of enzyme and inhibitor; mean from 3 different assays, errors 5-10%; read-out: KI (nM) CA I
quantityName: Ki

# smilesInput, valueMeasured
records = [
    ("CC1=CS(=O)(=O)Oc2cc(OCc3cccc(F)c3)ccc21", "> 100000 nM"),
    ("COc1ccc2c(c1)OS(=O)(=O)C(C(=O)Nc1cccc(Br)c1)=C2", "> 100000 nM"),
    ("O=S1(=O)Oc2cc(OCc3cccc(F)c3)ccc2-c2ccccc21", "> 100000 nM"),
    ("O=C(O)C1=Cc2ccccc2OS1(=O)=O", "4620 nM"),
    ("COc1ccc(NC(=O)C2=Cc3ccccc3OS2(=O)=O)cc1", "> 100000 nM"),
]

Batch lookup, Ki per entry.
1. O=S1(=O)C=Cc2ccc(OCc3ccccc3)cc2O1
2. O=S1(=O)Oc2cc(OCc3ccccc3)ccc2-c2ccccc21
3. O=S1(=O)C=Cc2ccc(O)cc2O1
4. O=S1(=O)C=Cc2ccc(OCc3ccc(F)cc3)cc2O1
5. O=S1(=O)Oc2cc(OCc3ccc(F)cc3)ccc2-c2ccccc21

## Output
1: > 100000 nM; 2: > 100000 nM; 3: 16500 nM; 4: > 100000 nM; 5: > 100000 nM

* * *

quantityName: melting point

# count of solved cases: 2
# compound, melting point
measured = [
    ("O=[N+]([O-])c1cccc(COc2ccc3c(c2)OS(=O)(=O)C=C3)c1 [Compound 17]", "200 to 202 °C"),
    ("O=S1(=O)Oc2cc(O)ccc2-c2ccccc21 [Compound 26]", "181 to 182 °C"),
]

Batch lookup, melting point per entry.
1. COc1cccc(NC(=O)C2=Cc3ccc(OC)cc3OS2(=O)=O)c1 [Compound 47]
2. O=S1(=O)C=Cc2ccc(OCc3cccc(F)c3)cc2O1 [Compound 15]
3. O=C(Nc1ccccc1)C1=Cc2ccccc2OS1(=O)=O [Compound 38]
4. CCOC(=O)C1=Cc2ccc(OC)cc2OS1(=O)=O [Compound 35]

## Output
222 to 225 °C
180 to 183 °C
192 to 195 °C
167 to 169 °C

* * *

targetOrTestSystem: hCA XII (Homo sapiens, UniProt O43570)
Construct: made in house
Sequence (O43570 25-354): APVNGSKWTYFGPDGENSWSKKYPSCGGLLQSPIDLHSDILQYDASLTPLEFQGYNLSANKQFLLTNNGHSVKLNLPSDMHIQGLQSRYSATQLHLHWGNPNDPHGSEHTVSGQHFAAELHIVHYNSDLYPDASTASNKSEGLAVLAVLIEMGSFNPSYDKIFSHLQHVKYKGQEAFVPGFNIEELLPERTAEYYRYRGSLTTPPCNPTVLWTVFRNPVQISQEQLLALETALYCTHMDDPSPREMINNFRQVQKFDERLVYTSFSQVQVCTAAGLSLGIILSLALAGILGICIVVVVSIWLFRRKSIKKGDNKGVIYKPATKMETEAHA
measurementProtocol: biochemical
details: 6 h incubation of enzyme and inhibitor; mean from 3 different assays, errors 5-10%; read-out: KI (nM) CA XII
Rule: measured Ki below 90 nM gets true; anything equal to or greater than 90 nM gets false.

Below are worked cases with known answers.
# compound, classLabel
data = [
    ("COc1ccc2c(c1)OS(=O)(=O)c1ccccc1-2 [Compound 25]", "false"),
    ("CC1=CS(=O)(=O)Oc2cc(OCc3ccc([N+](=O)[O-])cc3)ccc21 [Compound 21]", "false"),
    ("CC1=CS(=O)(=O)Oc2cc(OCc3cccc([N+](=O)[O-])c3)ccc21 [Compound 22]", "false"),
    ("O=[N+]([O-])c1ccc(COc2ccc3c(c2)OS(=O)(=O)c2ccccc2-3)cc1 [Compound 30]", "false"),
]

## Input Dear reviewer, please state whether O=[N+]([O-])c1cccc(COc2ccc3c(c2)OS(=O)(=O)c2ccccc2-3)c1 [Compound 31] has Ki strictly beneath 90 nM.
## Output false

* * *

Assignment: determine reported melting point for the given compounds.

# smilesInput, quantityName, valueMeasured
records = [
    ("O=C(O)C1=Cc2ccccc2OS1(=O)=O", "melting point", "105 to 107 °C"),
    ("O=S1(=O)C=Cc2ccc(OCc3ccccc3)cc2O1", "melting point", "165 to 167 °C"),
]

Batch lookup, melting point per entry.
1. COc1ccc2c(c1)OS(=O)(=O)C(C(=O)Nc1ccc(Br)cc1)=C2
2. O=C(Nc1cccc(Br)c1)C1=Cc2ccccc2OS1(=O)=O
3. COc1ccc(NC(=O)C2=Cc3ccc(OC)cc3OS2(=O)=O)cc1
4. COc1ccc2c(c1)OS(=O)(=O)C(C(=O)O)=C2
5. CC1=CS(=O)(=O)Oc2cc(O)ccc21
6. COc1ccc2c(c1)OS(=O)(=O)C(C(=O)Nc1ccccc1)=C2
7. O=[N+]([O-])c1ccc(COc2ccc3c(c2)OS(=O)(=O)C=C3)cc1
8. COc1ccc2c(c1)OS(=O)(=O)C=C2C

## Output
1. 272 to 275 °C
2. 228 to 229 °C
3. 238 to 240 °C
4. 150 to 151 °C
5. 172 to 175 °C
6. 241 to 244 °C
7. 215 to 217 °C
8. 151 to 153 °C

Every entry's value here was drawn from paper PMC9267968.
